# Assay Comment: Example 1: stability of bilberry extract anthocyanosides, 4 hours at 37° C., pH 7.0, with/without DHLA or GSH (HPLC)
# Assay type: physicochemical
# Conditions Used: 30 mg dihydrolipoic acid, pH 7.0, 37° C., 4 hours
Measurement Label: % left, DHLA (4 hours) (%)

INSERT INTO assay_data (compound, recorded_measurement) VALUES
  ('COc1cc(-c2[o+]c3cc(O)cc(O)c3cc2O[C@@H]2O[C@H](CO)[C@@H](O)[C@H](O)[C@H]2O)ccc1O [Pe-3O-Glc, Peonidin 3-o-glucoside]', 62.3),
  ('Oc1cc(O)c2cc(O[C@@H]3OC[C@H](O)[C@H](O)[C@H]3O)c(-c3ccc(O)c(O)c3)[o+]c2c1 [Cn-3O-Ara, Cyanidin 3-o-arabinoside]', 70.2),
  ('COc1cc(-c2[o+]c3cc(O)cc(O)c3cc2O[C@@H]2OC[C@H](O)[C@H](O)[C@H]2O)cc(OC)c1O [Mv-3O-Ara, Malvidin 3-o-arabinoside]', 69.4),
  ('COc1cc(-c2[o+]c3cc(O)cc(O)c3cc2OC2OC(CO)C(O)C(O)C2O)cc(O)c1O (stereo not shown) [Pt-3O-Gal, Petunidin 3-o-galactoside]', 61.4),
  ('COc1cc(-c2[o+]c3cc(O)cc(O)c3cc2O[C@@H]2OC[C@H](O)[C@H](O)[C@H]2O)cc(O)c1O.[Cl-] [Pt-3O-Ara, Petunidin 3-o-arabinoside]', 66.6),
  ('COc1cc(-c2[o+]c3cc(O)cc(O)c3cc2O[C@@H]2O[C@H](CO)[C@@H](O)[C@H](O)[C@H]2O)cc(OC)c1O [Mv-3O-Glc, Malvidin 3-o-glucoside]', 63.0),
  ('COc1cc(-c2[o+]c3cc(O)cc(O)c3cc2O[C@@H]2O[C@H](CO)[C@H](O)[C@H](O)[C@H]2O)cc(OC)c1O [Mv-3O-Gal, Malvidin 3-o-galactoside]', 62.8),
  ('OC[C@H]1O[C@@H](Oc2cc3c(O)cc(O)cc3[o+]c2-c2ccc(O)c(O)c2)[C@H](O)[C@@H](O)[C@H]1O [Cn-3O-Gal, Cyanidin-3-O-galactoside]', 64.5),
  ('Oc1cc(O)c2cc(O[C@H]3OC[C@H](O)[C@H](O)[C@H]3O)c(-c3cc(O)c(O)c(O)c3)[o+]c2c1 [Dp-3O-Ara, Delphinidin 3-o-arabinoside]', 64.5),
  ('OC[C@H]1O[C@@H](Oc2cc3c(O)cc(O)cc3[o+]c2-c2ccc(O)c(O)c2)[C@H](O)[C@@H](O)[C@@H]1O [Cn-3O-Glc, Cyanidin 3-o-glucoside]', 67.9),
  ('OC[C@H]1O[C@@H](Oc2cc3c(O)cc(O)cc3[o+]c2-c2cc(O)c(O)c(O)c2)[C@H](O)[C@@H](O)[C@@H]1O [Dp-3O-Glc, Delphinidin 3-o-glucoside]', 57.1),
  ('COc1cc(-c2[o+]c3cc(O)cc(O)c3cc2O[C@@H]2O[C@H](CO)[C@@H](O)[C@H](O)[C@H]2O)cc(O)c1O [Pt-3O-Glc, Petunidin 3-o-glucoside]', 57.4),
  ('OC[C@H]1O[C@@H](Oc2cc3c(O)cc(O)cc3[o+]c2-c2cc(O)c(O)c(O)c2)[C@H](O)[C@@H](O)[C@H]1O [Dp-3O-Gal, Delphinidin 3-o-galactoside]', 60.5);
